The entries below are paired with their reported IC50 (neutralization).
Target: HIV-1 Env of isolate MGRM-D-005 (subtype D) (HIV-1)
Assay: cell-based or functional assay

- binder: "PGT-131 (antibody, V domains shown) VH: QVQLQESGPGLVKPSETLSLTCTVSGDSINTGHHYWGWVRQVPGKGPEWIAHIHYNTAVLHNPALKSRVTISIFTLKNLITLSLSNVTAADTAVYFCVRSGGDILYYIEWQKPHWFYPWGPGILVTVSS VL: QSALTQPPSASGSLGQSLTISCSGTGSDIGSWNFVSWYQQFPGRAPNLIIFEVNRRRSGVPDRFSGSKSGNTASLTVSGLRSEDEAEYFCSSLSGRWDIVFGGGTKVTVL"
  IC50 (neutralization): "> 50 µg/mL"
- binder: "PGT-123 (antibody, V domains shown) VH: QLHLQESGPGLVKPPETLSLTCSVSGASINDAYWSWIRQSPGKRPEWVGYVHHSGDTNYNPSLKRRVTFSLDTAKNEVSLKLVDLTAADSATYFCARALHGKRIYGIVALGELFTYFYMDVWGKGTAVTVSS VL: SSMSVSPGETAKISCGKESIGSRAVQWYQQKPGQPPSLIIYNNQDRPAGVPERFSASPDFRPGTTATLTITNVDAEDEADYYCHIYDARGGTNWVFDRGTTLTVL"
  IC50 (neutralization): "> 50 µg/mL"
- binder: "PGT-136 (antibody, V domains shown) VH: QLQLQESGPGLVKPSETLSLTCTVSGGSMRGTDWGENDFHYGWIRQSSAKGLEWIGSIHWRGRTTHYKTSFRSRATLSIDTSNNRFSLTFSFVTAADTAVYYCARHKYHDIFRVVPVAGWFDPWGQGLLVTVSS VL: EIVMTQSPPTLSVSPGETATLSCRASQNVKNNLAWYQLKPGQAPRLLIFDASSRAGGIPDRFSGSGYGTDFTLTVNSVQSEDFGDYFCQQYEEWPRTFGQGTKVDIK"
  IC50 (neutralization): "> 50 µg/mL"
